All values here come from ChEMBL document CHEMBL5550129.

System: Leishmania infantum
Assay: Antileishmanial activity against Leishmania infantum
Assay type: functional, organism-based
recorded metric: pIC50
Quick note: pIC50 means taking -log10 of the concentration in moles per liter.

IN: Tell us which pIC50 value is on record for O=S(=O)(c1ccc(Cl)cc1)N1CCNCC1
OUT: 5.30

* * *

Assay: Selectivity index, ratio of CC50 for human THP-1 cells to IC50 for Leishmania infantum
Type: toxicity
Conditions: read-out: Ratio CC50/IC50
recorded metric: selectivity ratio

IN: Specify selectivity ratio for O=S(=O)(c1ccc(Cl)cc1)N1CCNCC1 and stop.
OUT: > 250

* * *

Test: Selectivity index, ratio of CC50 for human THP-1 cells to IC50 for Leishmania infantum MHOM/BR/1974/PP75 expressing red fluorescence protein infected in THP-1 cells
Format: toxicity, cell-based
Settings: read-out: Ratio CC50/IC50
Binarize selectivity ratio at 10; below is Met, at or above is Not met.

Observe how each entry below is paired with its result.
compound_structure_string=CN(C)CCOc1ccc(N2CCN(S(=O)(=O)c3ccc(N)cc3)CC2)cc1 assigned_label="Not met"
compound_structure_string=COc1ccc(OC)c(S(=O)(=O)N2CCN(c3ccc(OCCN(C)C)cc3)CC2)c1 assigned_label=Met
compound_structure_string=CN(C)CCOc1ccc(N2CCN(S(=O)(=O)c3ccc([N+](=O)[O-])cc3)CC2)cc1 assigned_label=Met
compound_structure_string=COc1ccc(Cl)cc1S(=O)(=O)N1CCN(c2ccc(OCCN(C)C)cc2)CC1 assigned_label=Met
compound_structure_string=CN(C)CCOc1cccc(N2CCN(S(=O)(=O)c3ccc(Cl)cc3)CC2)c1 assigned_label="Not met"

IN: Given N#CCOc1ccc(N2CCN(S(=O)(=O)c3ccc(Cl)cc3)CC2)cc1 , is recorded selectivity ratio strictly lower than 10?
OUT: Met

IN: I wonder whether CN(C)CCOc1ccc(N2CCN(S(=O)(=O)c3ccc(F)cc3)CC2)cc1 has selectivity ratio below 10. Can you tell?
OUT: Not met

IN: selectivity ratio strictly < 10 for this molecule? CN(C)CCOc1ccc(N2CCN(S(=O)(=O)c3ccccc3)CC2)cc1
OUT: Met

IN: Field: below-cutoff. Rule: recorded selectivity ratio strictly less than 10. Subject: CN(C)CCNc1ccc(C(=O)N2CCN(S(=O)(=O)c3ccc(Cl)cc3)CC2)cn1
OUT: Not met

IN: Strictly below 10: is that where selectivity ratio of CN(C)CCOc1ccc(N2CCN(S(=O)(=O)c3ccc(Br)cc3)CC2)cc1 sits?
OUT: Met

IN: Please state whether selectivity ratio is below 10 for CN(C)CCOc1ccc(N2CCN(S(=O)(=O)c3ccccc3Br)CC2)cc1
OUT: Met

IN: Would you kindly verify if selectivity ratio of Cc1ccc(S(=O)(=O)N2CCN(c3ccc(OCCN(C)C)cc3)CC2)cc1 is strictly less than 10?
OUT: Met

* * *

Test: Selectivity index, ratio of CC50 for human THP-1 cells to IC50 for Leishmania braziliensis
Format: toxicity
Details: read-out: Ratio CC50/IC50
recorded metric: selectivity ratio

IN: Give selectivity ratio for the following compound: O=S(=O)(c1ccc(Cl)cc1)N1CCNCC1
OUT: > 250

* * *

Test system: Trypanosoma cruzi
Assay: Antitrypanosomal activity against Trypanosoma cruzi Tulahuen expressing Escherichia coli beta-galactosidase infected in L929 cells pretreated with parasite for 50 hrs followed by compound addition and measured after 96 hrs
Type: functional, organism-based
recorded metric: IC50 (µM)
Report the figure in µM without appending any unit label.

# count of solved cases: 3
compound_structure_string=CN(C)CCOc1ccc(N2CCN(S(=O)(=O)c3ccc([N+](=O)[O-])cc3)CC2)cc1 scale_unit=µM result_number=1.7
compound_structure_string=COc1ccc(Cl)cc1S(=O)(=O)N1CCN(c2ccc(OCCN(C)C)cc2)CC1 scale_unit=µM result_number=12.6
compound_structure_string=Cc1ccc(S(=O)(=O)N2CCN(c3ccc(OCCN(C)C)cc3)CC2)cc1 scale_unit=µM result_number=2.2

Now look at this one.
IN: Give the reported IC50 for this compound. CN(C)CCOc1ccc(C(=O)N2CCN(S(=O)(=O)c3ccc(Cl)cc3)CC2)cc1
OUT: 13.8

* * *

CC50 at 72 h for assorted molecules
Test: Cytotoxicity against human THP-1 cells incubated for 72 hrs by Alamar blue assay
Format: toxicity, cell-based
Write it as a number; the unit µM goes unstated.

Known results for molecules:
compound_structure_string=O=C(c1ccc(N2CCNCC2)nc1)N1CCN(S(=O)(=O)c2ccc(Cl)cc2)CC1 scale_unit=µM result_number=253
compound_structure_string=CN(C)CCOc1ccc(N2CCN(S(=O)(=O)c3ccccc3)CC2)cc1 scale_unit=µM result_number=650

Now look at this entry.
IN: Tell me measured CC50 at 72 h for Cc1ccc(S(=O)(=O)N2CCN(c3ccc(OCCN(C)C)cc3)CC2)cc1 please.
OUT: 298

* * *

Assay: Selectivity index, ratio of CC50 for mouse L929 cells to IC50 for Trypanosoma cruzi
Format: toxicity
Details: read-out: Ratio CC50/IC50
recorded metric: selectivity ratio
Response field accepts a number only; no unit should be typed.

IN: Name the recorded selectivity ratio of the item O=S(=O)(c1ccc(Cl)cc1)N1CCNCC1 in your answer.
OUT: 61

* * *

Test: Cytotoxicity against mouse L929 cells incubated for 96 hrs by Alamar blue assay
Format: toxicity, cell-based
recorded metric: CC50 at 96 h (µM)
Provide the reading as a plain figure in µM.

compound_structure_string=O=C(c1ccc(N2CCNCC2)nc1)N1CCN(S(=O)(=O)c2ccc(Cl)cc2)CC1 result_number=18
compound_structure_string=COc1ccc(S(=O)(=O)N2CCN(c3ccc(OCCN(C)C)cc3)CC2)cc1 result_number=354
compound_structure_string=COc1ccc(Cl)cc1S(=O)(=O)N1CCN(c2ccc(OCCN(C)C)cc2)CC1 result_number=148
compound_structure_string=CN(C)CCOc1ccc(N2CCN(S(=O)(=O)c3ccccc3Br)CC2)cc1 result_number=10
compound_structure_string=CN(C)CCOc1ccc(N2CCN(C(=O)c3ccc(Cl)cc3)CC2)cc1 result_number=339

IN: Please give the documented CC50 at 96 h of CN(C)CCNc1ccc(C(=O)N2CCN(S(=O)(=O)c3ccc(Cl)cc3)CC2)cn1
OUT: 395

IN: Supply recorded CC50 at 96 h for COc1ccc(OC)c(S(=O)(=O)N2CCN(c3ccc(OCCN(C)C)cc3)CC2)c1 here.
OUT: 274

IN: Supply reported CC50 at 96 h belonging to this compound: CN(C)CCOc1ccc(N2CCN(S(=O)(=O)c3ccc(F)cc3)CC2)cc1
OUT: 374

IN: Tell me measured CC50 at 96 h for Cc1ccc(S(=O)(=O)N2CCN(c3ccc(OCCN(C)C)cc3)CC2)cc1 please.
OUT: 289

IN: Write down CC50 at 96 h measured for item CN(C)CCOc1ccc(N2CCN(S(=O)(=O)c3ccccc3)CC2)cc1
OUT: 91.2

* * *

Overview of recorded IC50 for various compounds
System: Leishmania braziliensis
Test: Antileishmanial activity against Leishmania braziliensis MHOM/BR/75/M2904 expressing red fluorescence protein infected in THP-1 cells pre-infected for 4 hrs followed by compound addition and measured after 72 hrs by microplate reader assay
Format: functional, organism-based
Conditions: MHOM/BR/75/M2904, THP-1
Remember to put the unit after the number in your answer.

compound_structure_string=CN(C)CCOc1ccc(N2CCN(S(=O)(=O)c3ccc(F)cc3)CC2)cc1 tgt="Leishmania braziliensis" result="21 µM"
compound_structure_string=N#CCOc1ccc(C(=O)N2CCN(S(=O)(=O)c3ccc(Cl)cc3)CC2)cc1 tgt="Leishmania braziliensis" result="0.7 µM"
compound_structure_string=N#CCOc1ccc(N2CCN(S(=O)(=O)c3ccc(Cl)cc3)CC2)cc1 tgt="Leishmania braziliensis" result="40.3 µM"
compound_structure_string=COc1ccc(S(=O)(=O)N2CCN(c3ccc(OCCN(C)C)cc3)CC2)cc1 tgt="Leishmania braziliensis" result="70.5 µM"
compound_structure_string=CN(C)CCOc1ccc(C(=O)N2CCN(S(=O)(=O)c3ccc(Cl)cc3)CC2)cc1 tgt="Leishmania braziliensis" result="1.4 µM"
compound_structure_string=CN(C)CCOc1ccccc1C(=O)N1CCN(S(=O)(=O)c2ccc(Cl)cc2)CC1 tgt="Leishmania braziliensis" result="7.2 µM"
compound_structure_string=CN(C)CCOc1cccc(C(=O)N2CCN(S(=O)(=O)c3ccc(Cl)cc3)CC2)c1 tgt="Leishmania braziliensis" result="4.4 µM"
compound_structure_string=COc1ccc(OC)c(S(=O)(=O)N2CCN(c3ccc(OCCN(C)C)cc3)CC2)c1 tgt="Leishmania braziliensis" result="29.6 µM"

--- query ---
IN: Given the compound CN(C)CCOc1cccc(N2CCN(S(=O)(=O)c3ccc(Cl)cc3)CC2)c1 , write its reported IC50.
OUT: 41.7 µM

* * *

Each entry below carries its reported CC50 at 96 h.
Assay: Cytotoxicity against mouse L929 cells incubated for 96 hrs by Alamar blue assay
Type: toxicity, cell-based
Reply with just the number (in µM).

compound_structure_string=CN(C)CCOc1ccc(C(=O)N2CCN(S(=O)(=O)c3ccc(Cl)cc3)CC2)cc1 result_number=345

// below: CC50 at 96 h requested for another molecule
IN: Supply CC50 at 96 h value. Item: CN(C)CCOc1ccc(N2CCN(S(=O)(=O)c3ccc([N+](=O)[O-])cc3)CC2)cc1
OUT: 302
